Values compiled from PubChem BioAssay (NCI).

# Test system: MCF7 breast
# runDescription: NCI-60 one-dose screen, 48 h (100 = growth as untreated, 0 = no growth, -100 = all killed)
# conditionSummary: 10 µM
About 83,000 compounds went through this panel and 20% of them were active in at least one assay; those are over-represented in the sample as a whole.
measureName: growth (%)
Return type: number; implicit unit %.

# example entries with known answers
CCN1CCN(c2ccc(NC(=O)Nc3ccc(-c4cc(C(=O)NC(C)C)c5ncccc5n4)cc3)cc2C(F)(F)F)CC1 ... -89.9
CNC(=O)c1cccc(N2CCc3c2ccc(NC(=O)Nc2ccc(N4CCN(C)CC4)c(C(F)(F)F)c2)c3F)c1 ... -79.8
CN1C(=O)N(C)C2SC(N/N=C/c3cccs3)=NC21 (centres undefined) ... 13.3
O=C1Nc2cc(Cl)ccc2/C1=C/c1cccc(OCc2ccccc2)c1 ... 2.6
CN1CCN(Cc2ccc(C(=O)Nc3cccc(Nc4ccc5c(O)cccc5n4)c3)cc2C(F)(F)F)CC1 ... -67.1

# molecule COc1cccc(-c2ccc(/C=N/NC(=O)c3[nH]c4ccc(Br)cc4c3-c3ccccc3)o2)c1 ; its growth = 4.65

# molecule COc1cc2c(cc1OC)/C(=C\c1sc(Nc3ccc(O)cc3)nc1O)C(C(=O)O)=N2 ; its growth = 12.3

# molecule O=C(Nc1nc2ccccc2s1)c1ccc(Br)cc1 ; its growth = 41.6

# molecule Cc1ccc(NCC(=O)Nn2c(COc3ccccc3)nc3ccccc3c2=O)cc1 ; its growth = 82

====

compounds and their reported growth
# Test system: NCI/ADR-RES ovarian
# runDescription: NCI-60 one-dose screen, 48 h (100 = growth as untreated, 0 = no growth, -100 = all killed)
# conditionSummary: 10 µM
About 83,000 compounds went through this panel and 20% of them were active in at least one assay; those are over-represented in the sample as a whole.
Return type: number; implicit unit %.

# example entries with known answers
COc1ccc(C(=O)/C=C/c2cc(F)cc(C(F)(F)F)c2)cc1S(N)(=O)=O ... 5.77
Cc1ccc(-c2ccc(SCC(=O)Nc3ccc(S(N)(=O)=O)cc3Br)nn2)cc1 ... 65
CNC(=O)c1cccc(N2CCc3c2ccc(NC(=O)Nc2ccc(N4CCN(C)CC4)c(C(F)(F)F)c2)c3F)c1 ... -79.2
CN1CCN(c2ccc(C(=O)/C=C/c3cc(C(F)(F)F)ccc3Cl)cc2)CC1 ... -56.9
O=C(NO)c1ccc(-c2nc3ccc4[nH]ncc4c3c3c2CCCC3)cc1 ... -4.37
O=C1NC(=NC23CC4CC(CC(C4)C2)C3)N/C1=C\c1ccc2ncoc2c1 ... 4.58
O=C(Cc1ccc2c(c1)CN(C1CCC(=O)NC1=O)C2=O)NCCc1ccccc1 (stereo not drawn) ... 28.4
O=C(c1ccc(O)cc1)C1[C@H](c2ccc(Br)cc2)[C@@H](c2ccccc2)NC12C(=O)Nc1ccc(Br)cc12 (stereo partly drawn) ... -2.8

Kindly consider the entry below.
Form: item O=C(Nc1cc(Cl)cc(Cl)c1)Nc1cc(Cl)cc(Cl)c1 ; test system NCI/ADR-RES ovarian; growth: -24.1

====

# Tested on: PC-3 prostate
# runDescription: NCI-60 one-dose screen, 48 h (100 = growth as untreated, 0 = no growth, -100 = all killed)
# conditionSummary: 10 µM
This is part of a sample that, as a whole, favours compounds with a hit. Of some 83,000 tested, about 20% had one in any assay.
measureName: growth (%)
Return type: number; implicit unit %.

# example entries with known answers
CC1=C2C(=C[C@@](C)(COCOCCCl)[C@@H]2O)C(=O)[C@](C)(O)C12CC2 ... 0.191
CCCCCc1ccc(S(=O)(=O)N(C(C)=O)c2cc(-c3csc(N(C)C(C)=O)n3)ccc2N2CCN(C)CC2)cc1 ... 26.5
COc1ccc(-c2nc(S(=O)(=O)c3ccccc3)c(S(C)(=O)=O)o2)cc1 ... 78.2
C=C[C@@]12CN3CC[C@]1(O)[C@@](C(=O)OC)(CO2)c1[nH]c2ccccc2c1C3 ... 41.3

# compound Cn1c(O)c(N=Nc2nc(-c3cc4ccccc4oc3=O)cs2)c2cc(Br)ccc21 ; its growth = 102

# compound Cc1cccc(NC(=O)CSc2nc3ccc(F)cc3c(=O)n2-c2ccc(Cl)cc2)c1C ; its growth = 68.9

# compound COc1ccc(-c2cc(-c3cc(C(=O)c4ccccc4)n4ccc(C)cc34)nc(N)c2C#N)cc1 ; its growth = 63.5

# compound O=C(CNc1nc(-c2ccccc2)cs1)Nc1ccc(Cl)cc1[N+](=O)[O-] ; its growth = 10.5

# compound CC1(c2ccccc2)NC(=O)N(CC(=O)Nc2ccc(C(=O)/C=C/c3ccc(Br)cc3)cc2)C1=O (centres undefined) ; its growth = 20.1
